- measurement.target: T1, human IgE (human, UniProt P01854)
- T1 chain: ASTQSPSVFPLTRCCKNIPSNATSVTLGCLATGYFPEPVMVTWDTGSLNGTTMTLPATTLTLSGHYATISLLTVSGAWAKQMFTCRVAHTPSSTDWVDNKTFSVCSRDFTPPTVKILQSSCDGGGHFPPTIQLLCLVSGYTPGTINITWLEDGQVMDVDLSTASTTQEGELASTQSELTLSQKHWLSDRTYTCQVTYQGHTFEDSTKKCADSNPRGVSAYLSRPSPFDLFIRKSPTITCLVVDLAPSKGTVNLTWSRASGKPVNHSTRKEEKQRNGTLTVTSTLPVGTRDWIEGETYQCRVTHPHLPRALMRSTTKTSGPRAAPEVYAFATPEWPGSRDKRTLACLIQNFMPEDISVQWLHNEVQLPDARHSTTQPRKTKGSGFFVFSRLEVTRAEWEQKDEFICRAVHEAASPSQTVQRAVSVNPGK
- test.name: competition ELISA, pH 6.0
readout: IC50
In your response, put the unit directly after the numeric value.

These recorded examples may help you get a feel for the data.
[Q] State, in one line, measured IC50 of 13E4-hIgG1-ABDEG (antibody, V domains shown) VH: ELQLVESGGGLVQPGGSLRLSCAASGFTFSSYVMSWVRQAPGKGLEWVSSIYHDGSHTYYADFVKGRFTISRDNAKNTLYLQMNSLKSEDTAVYYCASGTSYSGSYYYTDPFFGSWGQGTQVTVSS VL: HSAVTQPSALSVTLGQTAKITCQGGSLGSNYAYWYQQKPGQAPVLVIYDDDSRPSGIPERFSGSSSGGTATLTISGAQAEDEGDYYCQSADSNGNAVFGGGTHLTVL
[A] 0.0106 µg/mL

[Q] State, in one line, measured IC50 of 18E2_VH_S35H_VL_Y34H (18E2His2) (antibody, V domains shown) VH: QLQLVESGGGLVQPGGSLRLSCAASGFTFSSYVMHWVRQAPGKGLEWVSSIYHDGSHTYYADFVKGRFTISRDNAKNTLYLQMNSLKSEDTAVYYCASGTSYSGSYYYTDPFFGSWGQGTQVTVSS VL: NFMLTQPSALSVTLGQTARITCQGDRLGSRYIHWYQQKPPQAPVLVIHDDDRRPSGIPERFSGSSSGGTATLTISGAQAEDDGDYYCQSADSSGNPVFGGGTHLTVL
[A] 77.2 µg/mL

Okay, now this binder:
[Q] State, in one line, measured IC50 of 18E2His2-hIgG1-ABDEG (antibody, V domains shown) VH: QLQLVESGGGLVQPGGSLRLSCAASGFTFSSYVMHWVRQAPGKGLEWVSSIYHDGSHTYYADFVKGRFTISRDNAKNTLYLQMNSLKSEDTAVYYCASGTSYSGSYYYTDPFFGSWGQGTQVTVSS VL: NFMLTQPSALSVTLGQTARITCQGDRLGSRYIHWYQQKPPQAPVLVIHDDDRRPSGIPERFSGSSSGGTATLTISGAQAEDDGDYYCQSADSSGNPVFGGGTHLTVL
[A] 26.6 µg/mL
